# Relative cAMP EC50 listing for each entry below
# targetOrTestSystem: human glucagon receptor (human) (UniProt P47871)
# Sequence (P47871 26-477): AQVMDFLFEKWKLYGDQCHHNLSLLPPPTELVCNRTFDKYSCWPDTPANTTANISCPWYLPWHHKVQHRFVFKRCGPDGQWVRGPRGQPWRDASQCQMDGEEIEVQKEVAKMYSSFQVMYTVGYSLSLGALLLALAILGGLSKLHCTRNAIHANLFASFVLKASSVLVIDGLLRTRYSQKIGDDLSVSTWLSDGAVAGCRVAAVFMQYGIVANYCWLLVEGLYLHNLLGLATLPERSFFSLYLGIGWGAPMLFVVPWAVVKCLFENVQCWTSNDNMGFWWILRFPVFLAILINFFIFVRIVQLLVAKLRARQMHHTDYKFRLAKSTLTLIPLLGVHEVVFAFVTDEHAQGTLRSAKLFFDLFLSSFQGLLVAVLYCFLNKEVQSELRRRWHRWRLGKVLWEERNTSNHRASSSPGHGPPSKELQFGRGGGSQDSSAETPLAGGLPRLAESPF
# assayText: cell-based or functional assay
The reply should contain only the number, in nM.

Consider the reported Relative cAMP EC50 for these binders:
binder	Relative cAMP EC50 (nM)
YXQGTXTSDXXIXLDXKAQXEFIQXLIEGGPSSGAPPPSGS (synthetic construct; SITE 2: note = 2-Aminoisobutyric Acid; SITE 6: note = alpha-methyl-2-fluoro-L-phenylalanine; SITE 10: note = 3-(4-Pyridyl)-L-alanine; SITE 11: note = alpha-methyl-L-serine; SITE 13: note = alpha-methyl-leucine; SITE 16: note = L-ornithine; SITE 17: note = Lysine is chemically mo) [Example 1202]	0.5
YXQGTXTSDXXIXLDXKAAXEFIEXLIEGGPSSGEPPPSGTE (synthetic construct; SITE 2: note = 2-Aminoisobutyric Acid; SITE 6: note = alpha-methyl-2-fluoro-L-phenylalanine; SITE 10: note = 3-(4-Pyridyl)-L-alanine; SITE 11: note = alpha-methyl-L-serine; SITE 13: note = alpha-methyl-leucine; SITE 16: note = L-ornithine; SITE 17: note = Lysine is chemically mo) [Example 719]	1.44
YXQGTXTSDYSIXLDKKAQXAFIEYLEEGGPSSGAPEPS (synthetic construct; SITE 2: note = 2-Aminoisobutyric Acid; SITE 6: note = alpha-methyl-2-fluoro-L-phenylalanine; SITE 13: note = alpha-methyl-leucine; SITE 17: note = Lysine is chemically modified through conjugation of the epsilon-amino group of the Lysine side chain with (2-[2-(2-Amino-ethoxy)-et)) [Example 423]	1.92

q: Which Relative cAMP EC50 reading was recorded for the binder YXQGTFTSDXSXXLDKKAQXAFIEWLLEGGPSSGEPPPSGE (synthetic construct; SITE 2: note = 2-Aminoisobutyric Acid; SITE 10: note = 3-(4-Pyridyl)-L-alanine; SITE 12: note = L-ornithine; SITE 13: note = alpha-methyl-leucine; SITE 17: note = Lysine is chemically modified through conjugation of the epsilon-amino group of the Lysine side chain with (2-[2-(2-) [Example 115] ?
a: 10.6

q: Continue with YXQGTFTSDXSXXLDXKAQXAFIEYLIAGGPSSGAPPPSGSEE (C-terminal amide; lysine acylated with (Glu)2-γ-Glu-C18 diacid; synthetic construct; SITE 2: note = 2-Aminoisobutyric Acid; SITE 10: note = 3-(4-Pyridyl)-L-alanine; SITE 12: note = L-ornithine; SITE 13: note = alpha-methyl-leucine; SITE 16: note = L-ornithine; SITE 17: note = Lysine is chemically modified through conjugation of the epsilon-amino group of the Lys) [Example 1062]
a: 8.77

q: Continue with YXQGTXTSDXXIXLDXKAQXXFIEXLTEGGPSSGEPPPSGTE (synthetic construct; SITE 2: note = 2-Aminoisobutyric Acid; SITE 6: note = alpha-methyl-2-fluoro-L-phenylalanine; SITE 10: note = 3-(4-Pyridyl)-L-alanine; SITE 11: note = alpha-methyl-L-serine; SITE 13: note = alpha-methyl-leucine; SITE 16: note = L-ornithine; SITE 17: note = Lysine is chemically mo) [Example 542]
a: 5.03

q: Continue with YXQGTFTSDFSXXLDKKAQXAFIEYLLEXGPSSGAPPPSEG (synthetic construct; SITE 2: note = 2-Aminoisobutyric Acid; SITE 12: note = L-ornithine; SITE 13: note = alpha-methyl-leucine; SITE 17: note = Lysine is chemically modified through conjugation of the epsilon-amino group of the Lysine side chain with (2-[2-(2-Amino-ethoxy)-ethoxy]-acetyl)2-(gamma-Glu)) [Example 71]
a: 8.74

q: Continue with YXQGTFTSDFSXXLDKKAQXAFIEWLLEGGSSSGAPPPGGT (synthetic construct; SITE 2: note = 2-Aminoisobutyric Acid; SITE 12: note = L-ornithine; SITE 13: note = alpha-methyl-leucine; SITE 17: note = Lysine is chemically modified through conjugation of the epsilon-amino group of the Lysine side chain with (2-[2-(2-Amino-ethoxy)-ethoxy]-acetyl)-(gamma-Glu)) [Example 272]
a: 7.91

q: Continue with YXQGTFTSDFSXXLDKKAQXAFIEYLLEGGPSSGAPPPSGT (synthetic construct; SITE 2: note = 2-Aminoisobutyric Acid; SITE 12: note = L-ornithine; SITE 13: note = alpha-methyl-leucine; SITE 17: note = Lysine is chemically modified through conjugation of the epsilon-amino group of the Lysine side chain with (gamma-Glu)2-CO-(CH2)16-CO2H; SITE 20: note = 2-Am) [Example 260]
a: 5.04

q: Continue with YXQGTXTSDXXIXLDXKAAXEFIEXLIEGGPSSGAPPPSGGGE (synthetic construct; SITE 2: note = 2-Aminoisobutyric Acid; SITE 6: note = alpha-methyl-2-fluoro-L-phenylalanine; SITE 10: note = 3-(4-Pyridyl)-L-alanine; SITE 11: note = alpha-methyl-L-serine; SITE 13: note = alpha-methyl-leucine; SITE 16: note = L-ornithine; SITE 17: note = Lysine is chemically mo) [Example 745]
a: 1.86

q: Continue with YXQGTFTSDFSXXLDKKAQXAFIEYLLEXGESSGAPPPSGS (Aib, Orn, αMeL; γGlu-AEEA-γGlu-C18 diacid on Lys; C-terminal amide; synthetic construct; SITE 2: note = 2-Aminoisobutyric Acid; SITE 12: note = L-ornithine; SITE 13: note = alpha-methyl-leucine; SITE 17: note = Lysine is chemically modified through conjugation of the epsilon-amino group of the Lysine side chain with (gamma-Glu)-(2-[2-(2-Amino-ethoxy)-ethoxy]-acetyl)) [Example 244]
a: 4.81

q: Continue with YXQGTFTSDFSXXLDKKAQXAFIEYLLEXGPSSGAPPPSGE (synthetic construct; SITE 2: note = 2-Aminoisobutyric Acid; SITE 12: note = L-ornithine; SITE 13: note = alpha-methyl-leucine; SITE 17: note = Lysine is chemically modified through conjugation of the epsilon-amino group of the Lysine side chain with (2-[2-(2-Amino-ethoxy)-ethoxy]-acetyl)-(gamma-Glu)) [Example 110]
a: 2.45

Each recorded value in this set is attributed to patent US20240270821A1.
